# TEST_SYSTEM: Epidermal growth factor receptor (Homo sapiens)
# METHOD_SUMMARY: EGFR binders on small-molecule microarrays, primary screen, biochemical, small-molecule microarray, 635 nm fluorescence (AID 1104);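 also: score merges 667 nm emission intensity with spot signal to noise over triplicate slides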
# STATED_CONDITIONS: EGFR binding, higher = more signal
VALUE_TYPE: composite z-score

Known results for compounds:
CC(C)=CCCC(C)=CC(O)C1C=CC2C(=O)N(c3ccccc3)C(=O)C2N1Nc1ccccc1F (stereo not given): 0.329
O=C1OCC=C[C@H]2OC34C=CCN(c5ccc6ccccc6c5)C(=O)[C@H]3N(CCCCCO)C(=O)[C@@H]4[C@@H]12 (stereo not given in full): -1.44
COCC(=C=CC[C@H](O)c1cccc(OCCO)c1)C[C@H](O)COCc1ccccc1: -0.751
COCCOC(=O)N1C(=O)[C@@]2(c3cc(C#CCNC(N)=O)ccc31)[C@H](c1ccc(OCCO)cc1)N1[C@H](c3ccccc3)[C@H](c3ccccc3)OC(=O)[C@H]1[C@@H]2C(N)=O: 1.14

Next up:
Noted for CN1C(=O)[C@@]2(Cc3ccccc3)N=C(c3ccc(OCCCO)cc3)O[C@H]2c2ccccc21 : its composite z-score reads 0.261
